test system: BT-474; test: In vitro cell proliferation inhibition, WST assay; assay type: cell-based, human; conditions: Homo sapiens, BT-474, 72 h, BT-474 cells, cultured for 3 days, read-out: BT-474 (nM) proliferation inhibitory activity (IC50 value)
measurement name: IC50 (nM)
Dear colleague, please return just the value in nM, with no unit written.

Field: example entries. Status: answers known.
[
  {
    "molecule": "CC#C/C(=N\\OC[C@@H]1CCCN1C)c1ccc2ncnc(Nc3ccc(OCc4ccccn4)c(Cl)c3)c2c1 [VIII-154]",
    "result unit": "nM",
    "IC50": 31
  },
  {
    "molecule": "CC#C/C(=N\\OCCNCCN(C)S(C)(=O)=O)c1ccc2ncnc(Nc3ccc4c(cnn4Cc4cccc(F)c4)c3)c2c1 [VIII-186]",
    "result unit": "nM",
    "IC50": 29
  },
  {
    "molecule": "CC#C/C(=N\\OCCNC[C@@H]1CCCO1)c1ccc2ncnc(Nc3ccc(OCc4ccccn4)c(Cl)c3)c2c1 [VIII-137]",
    "result unit": "nM",
    "IC50": 78
  }
]

Shift focus to the following entry.
State, for BT-474, measured IC50 of the molecule listed here: CC#C/C(=N\OC[C@H]1CCCN1CC#N)c1ccc2ncnc(Nc3ccc(OCc4cccc(F)c4)c(Cl)c3)c2c1 [VIII-86]
13

====

Biological target: HER2 (Homo sapiens, UniProt P04626)
Construct: purchased Carna Biosciences, Inc; host or cells: insect cell expression system
Sequence (P04626 23-1255): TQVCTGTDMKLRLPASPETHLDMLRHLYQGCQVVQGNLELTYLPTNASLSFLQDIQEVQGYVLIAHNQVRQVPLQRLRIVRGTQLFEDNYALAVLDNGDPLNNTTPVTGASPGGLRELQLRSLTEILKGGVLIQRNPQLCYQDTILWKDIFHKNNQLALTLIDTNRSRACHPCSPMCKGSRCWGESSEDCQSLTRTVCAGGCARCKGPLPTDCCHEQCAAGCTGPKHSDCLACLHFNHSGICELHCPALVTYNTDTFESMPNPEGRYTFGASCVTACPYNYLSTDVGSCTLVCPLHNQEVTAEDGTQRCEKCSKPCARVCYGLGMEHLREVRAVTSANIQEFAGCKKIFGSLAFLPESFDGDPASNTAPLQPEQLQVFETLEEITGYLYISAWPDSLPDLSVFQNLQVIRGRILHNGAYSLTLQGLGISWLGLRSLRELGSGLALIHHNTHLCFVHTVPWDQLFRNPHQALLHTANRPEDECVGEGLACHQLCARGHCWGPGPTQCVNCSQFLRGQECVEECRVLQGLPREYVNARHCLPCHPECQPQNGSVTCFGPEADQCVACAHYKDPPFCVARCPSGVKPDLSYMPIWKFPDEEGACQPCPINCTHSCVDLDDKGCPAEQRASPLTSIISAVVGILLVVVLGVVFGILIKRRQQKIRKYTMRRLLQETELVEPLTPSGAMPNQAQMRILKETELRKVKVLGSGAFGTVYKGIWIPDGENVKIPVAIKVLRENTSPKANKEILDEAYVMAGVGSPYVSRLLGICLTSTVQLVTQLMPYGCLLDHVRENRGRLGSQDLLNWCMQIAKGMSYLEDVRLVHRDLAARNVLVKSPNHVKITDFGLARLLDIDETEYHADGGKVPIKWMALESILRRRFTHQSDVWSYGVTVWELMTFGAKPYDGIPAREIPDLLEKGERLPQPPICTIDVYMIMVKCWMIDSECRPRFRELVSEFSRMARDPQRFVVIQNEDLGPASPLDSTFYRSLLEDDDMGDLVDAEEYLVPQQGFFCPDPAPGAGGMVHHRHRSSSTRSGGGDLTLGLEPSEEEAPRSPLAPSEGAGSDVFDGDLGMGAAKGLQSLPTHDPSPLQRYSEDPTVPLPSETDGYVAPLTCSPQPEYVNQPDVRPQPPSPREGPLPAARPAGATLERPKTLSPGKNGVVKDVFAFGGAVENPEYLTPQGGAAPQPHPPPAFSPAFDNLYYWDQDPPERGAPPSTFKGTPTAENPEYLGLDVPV
Test: Enzyme inhibitory activity on HER2 (time resolution fluorescence, biotinylated poly-Glu-Tyr substrate)
Type: biochemical
Conditions: HER2 purified from insect cell expression system; ATP solution 290 μM; room temperature, 60 minutes
Description: Enzyme Inhibitory Activity of Test Compound on EGFR and HER2 EGFR and HER2 purified from an insect cell expression system, and a biotinylated substrate (synthetic peptide of glutamic acid:tyrosine=4:1) were added to a 384-well plate with ATP added thereto, and an enzyme reaction was performed at room temperature. […]
// assign Yes if IC50 falls strictly below 200 nM, else No (ties count as No)

Check out these entries, answers already filled in.
[
  {
    "smi": "CC#C/C(=N\\OCCN)c1ccc2ncnc(Nc3ccc(OCc4cccc(F)c4)c(Cl)c3)c2c1",
    "discrete label": "Yes"
  },
  {
    "smi": "CC#C/C(=N\\OC[C@@H]1CNC[C@@H](C)O1)c1ccc2ncnc(Nc3ccc(OCc4cccc(F)c4)c(Cl)c3)c2c1",
    "discrete label": "Yes"
  },
  {
    "smi": "CC#C/C(=N\\OC[C@H]1NCCO[C@@H]1C)c1ccc2ncnc(Nc3ccc(OCc4cccc(F)c4)c(Cl)c3)c2c1",
    "discrete label": "Yes"
  },
  {
    "smi": "CC#C/C(=N\\OCCN1CCS(=O)(=O)CC1)c1ccc2ncnc(Nc3ccc(OCc4cccc(F)c4)c(Cl)c3)c2c1",
    "discrete label": "Yes"
  },
  {
    "smi": "CC#C/C(=N\\OCCNCC(F)(F)F)c1ccc2ncnc(Nc3ccc(OCc4cccc(F)c4)c(Cl)c3)c2c1",
    "discrete label": "No"
  }
]

// next entry
State whether 200 nM exceeds IC50 recorded for `Fc1cccc(COc2ccc(Nc3ncnc4ccc(C(=NOCCN5CCOCC5)c5ccccc5)cc34)cc2Cl)c1` .
No

====

molecular target: EGFR (Homo sapiens, UniProt P00533); construct: purchased Carna Biosciences, Inc; host or cells: insect cell expression system; assay: Enzyme inhibitory activity on EGFR (time resolution fluorescence, biotinylated poly-Glu-Tyr substrate); assay type: biochemical; conditions: enzyme reaction at room temperature for 60 minutes
Sequence (P00533 25-1210): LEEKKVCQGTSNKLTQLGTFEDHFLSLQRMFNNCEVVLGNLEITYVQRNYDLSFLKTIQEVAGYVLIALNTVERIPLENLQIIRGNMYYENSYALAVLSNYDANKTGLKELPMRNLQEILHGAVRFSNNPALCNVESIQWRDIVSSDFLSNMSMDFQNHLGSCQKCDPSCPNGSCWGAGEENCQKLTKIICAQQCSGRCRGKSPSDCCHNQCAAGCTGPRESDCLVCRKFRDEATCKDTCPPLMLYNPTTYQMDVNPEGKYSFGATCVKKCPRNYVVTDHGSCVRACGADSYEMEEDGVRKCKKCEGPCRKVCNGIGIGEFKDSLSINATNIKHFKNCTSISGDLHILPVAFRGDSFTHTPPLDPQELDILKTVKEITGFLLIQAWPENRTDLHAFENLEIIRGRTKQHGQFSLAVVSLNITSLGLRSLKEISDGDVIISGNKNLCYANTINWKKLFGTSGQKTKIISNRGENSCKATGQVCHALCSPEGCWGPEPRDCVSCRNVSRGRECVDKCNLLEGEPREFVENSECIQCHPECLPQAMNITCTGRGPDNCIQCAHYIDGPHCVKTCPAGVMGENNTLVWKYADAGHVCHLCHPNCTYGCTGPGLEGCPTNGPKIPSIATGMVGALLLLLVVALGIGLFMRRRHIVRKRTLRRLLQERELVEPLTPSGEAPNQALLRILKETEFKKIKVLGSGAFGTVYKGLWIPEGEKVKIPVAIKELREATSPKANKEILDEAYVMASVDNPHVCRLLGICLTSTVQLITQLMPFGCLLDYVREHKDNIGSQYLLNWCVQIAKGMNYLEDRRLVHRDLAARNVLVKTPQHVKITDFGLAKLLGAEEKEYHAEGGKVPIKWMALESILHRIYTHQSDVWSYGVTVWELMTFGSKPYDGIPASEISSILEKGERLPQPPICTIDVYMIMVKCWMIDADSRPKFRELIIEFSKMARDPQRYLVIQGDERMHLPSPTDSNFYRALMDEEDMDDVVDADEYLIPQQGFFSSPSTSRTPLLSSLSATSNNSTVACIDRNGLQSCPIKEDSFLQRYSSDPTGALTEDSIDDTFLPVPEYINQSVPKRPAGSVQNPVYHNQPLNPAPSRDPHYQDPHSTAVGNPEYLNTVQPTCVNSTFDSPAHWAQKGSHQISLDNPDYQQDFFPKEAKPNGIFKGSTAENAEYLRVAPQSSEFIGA
We begin with a simple list: items and their reported IC50.
Dear colleague, please return just the value in nM, with no unit written.

Field: example entries. Status: answers known.
[
  {
    "molecule": "CNCCO/N=C(\\C#CCOC)c1ccc2ncnc(Nc3ccc(OCc4ccccn4)c(Cl)c3)c2c1 [VIII-180]",
    "result unit": "nM",
    "IC50": 7.8
  },
  {
    "molecule": "CC#C/C(=N\\OC[C@H]1COCCN1)c1ccc2ncnc(Nc3ccc(OCc4ccccn4)c(Cl)c3)c2c1 [VIII-167]",
    "result unit": "nM",
    "IC50": 4.8
  },
  {
    "molecule": "CC#C/C(=N\\OCCN1CCC(O)CC1)c1ccc2ncnc(Nc3ccc(OCc4ccccn4)c(Cl)c3)c2c1 [VIII-165]",
    "result unit": "nM",
    "IC50": 11
  },
  {
    "molecule": "CC#C/C(=N\\OCCNC[C@H]1CCC(=O)N1)c1ccc2ncnc(Nc3ccc4c(cnn4Cc4cccc(F)c4)c3)c2c1 [VIII-190]",
    "result unit": "nM",
    "IC50": 8.9
  },
  {
    "molecule": "CC#C/C(=N\\OCCNC)c1ccc2ncnc(Nc3ccc(Oc4ccc(C)nc4)c(C)c3)c2c1 [VIII-210]",
    "result unit": "nM",
    "IC50": 42
  }
]

Input CC#C/C(=N\OCCNCCCN1CCCC1=O)c1ccc2ncnc(Nc3ccc(OCc4ccccn4)c(Cl)c3)c2c1 [VIII-133] , output reported IC50.
8.4

Input CC#C/C(=N\OC[C@H]1CN(CCO)CCN1)c1ccc2ncnc(Nc3ccc(OCc4ccccn4)c(Cl)c3)c2c1 [VIII-174] , output reported IC50.
25

====

We begin with a simple list: items and their reported IC50.
molecular target: EGFR (Homo sapiens, UniProt P00533); construct: purchased Carna Biosciences, Inc; host or cells: insect cell expression system; experiment: Enzyme inhibitory activity on EGFR (time resolution fluorescence, biotinylated poly-Glu-Tyr substrate); format: biochemical; conditions: EGFR purified from insect cell expression system; ATP solution 125 μM; room temperature, 60 minutes
Dear colleague, please return just the value in nM, with no unit written.

[
  {
    "molecule": "CC#C/C(=N\\OCCNCCOC(N)=O)c1ccc2ncnc(Nc3ccc(OCc4cccc(F)c4)c(Cl)c3)c2c1",
    "system under test": "EGFR (Homo sapiens, UniProt P00533)",
    "result": 79
  },
  {
    "molecule": "OCC#C/C(=N\\OCCN1CCCC1)c1ccc2ncnc(Nc3ccc(OCc4cccc(F)c4)c(Cl)c3)c2c1",
    "system under test": "EGFR (Homo sapiens, UniProt P00533)",
    "result": 29
  },
  {
    "molecule": "CC#CC(=NOCCNCC(C)CO)c1ccc2ncnc(Nc3ccc(OCc4cccc(F)c4)c(Cl)c3)c2c1 (stereo not shown)",
    "system under test": "EGFR (Homo sapiens, UniProt P00533)",
    "result": 22
  },
  {
    "molecule": "CC#C/C(=N\\OCCNC1CCOCC1)c1ccc2ncnc(Nc3ccc(OCc4cccc(F)c4)c(Cl)c3)c2c1",
    "system under test": "EGFR (Homo sapiens, UniProt P00533)",
    "result": 19
  }
]

Input `CC#C/C(=N\OCCNCCNS(C)(=O)=O)c1ccc2ncnc(Nc3ccc(OCc4cccc(F)c4)c(Cl)c3)c2c1` , output reported IC50.
45

Input `O=S1(=O)CCN(CCON=C(c2ccccc2)c2ccc3ncnc(Nc4ccc(OCc5cccc(F)c5)c(Cl)c4)c3c2)CC1` , output reported IC50.
209

Input `CC#C/C(=N\O[C@H]1CN[C@H](CO)C1)c1ccc2ncnc(Nc3ccc(OCc4cccc(F)c4)c(Cl)c3)c2c1` , output reported IC50.
32

Input `CC#C/C(=N\OC[C@@H]1C[C@@H](NC(C)=O)CN1)c1ccc2ncnc(Nc3ccc(OCc4cccc(F)c4)c(Cl)c3)c2c1` , output reported IC50.
44

Input `CC#C/C(=N\OC[C@H]1CNCCO1)c1ccc2ncnc(Nc3ccc(OCc4cccc(F)c4)c(Cl)c3)c2c1` , output reported IC50.
57

Input `CC#C/C(=N\OCCN1CCC[C@@H]1CO)c1ccc2ncnc(Nc3ccc(OCc4cccc(F)c4)c(Cl)c3)c2c1` , output reported IC50.
43

====

tested on: BT-474; assay: In vitro cell proliferation inhibition, WST assay; assay type: cell-based, human; settings: Homo sapiens, BT-474, 72 h, BT-474 cells, cultured for 3 days, read-out: BT-474 (nM) proliferation inhibitory activity (IC50 value)
measurement name: IC50 (nM)
Dear colleague, please return just the value in nM, with no unit written.

Field: example entries. Status: answers known.
[
  {
    "smi": "CC#C/C(=N\\OC[C@H]1CCCN1)c1ccc2ncnc(Nc3ccc(OCc4ccccn4)c(Cl)c3)c2c1",
    "result": 25
  },
  {
    "smi": "OCC#C/C(=N\\OCCN1CCCC1)c1ccc2ncnc(Nc3ccc(OCc4cccc(F)c4)c(Cl)c3)c2c1",
    "result": 14
  }
]

Shift focus to the following entry.
State, for BT-474, measured IC50 of the molecule listed here: `CC#C/C(=N\OCCN1CCC[C@@H]1CO)c1ccc2ncnc(Nc3ccc(OCc4ccccn4)c(Cl)c3)c2c1`
30
